Sourced from PubChem BioAssay

experiment: antimalarial activity against Dd2 strain (AID 2302);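 also: 0% = DMSO untreated growth and 100% = chloroquine plus artemisinin killed control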; details: P. falciparum Dd2 in RBCs, LDH growth readout, 72 h; at 2 µM; hits give high values
readout.type: growth inhibition (%)
Number only, in %; omit the unit.

Examples with answers:
compound: OC(CNCc1ccccc1OCc1ccccc1)c1cc(Br)cs1 (stereo not drawn)
growth inhibition (%): 88
--
compound: Oc1ccccc1CN1CCN(C(c2ccccc2)c2ccccc2)CC1
growth inhibition (%): 90

q: Dear colleague, please send me the reported growth inhibition for CC(C(=O)NC1CCN(c2ccnc(Nc3ccc(F)cc3)n2)C1)c1ccc(Cl)cc1 (stereo not drawn) when you can.
a: 90

* * *

assay: human hepatoma cell viability loss – ATP luminescence, cytotoxicity control for P. falciparum antimalarial project, primary screen (AID 2303); settings: HepG2 viability, 24-48 h, at 10 µM, hits give high values;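 also: 0% = DMSO wells and 100% = digitonin-killed cells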
readout.type: inhibition (%)
Number only, in %; omit the unit.

q: Dear colleague, please send me the reported inhibition for "CCCCNCc1ccc(-c2nc(CN(Cc3ccc(Cl)c(Cl)c3)S(=O)(=O)c3ccc(NC(C)=O)cc3)cs2)cc1" when you can.
a: 30

q: Dear colleague, please send me the reported inhibition for COc1ccc2nccc([C@@H](O)CN3CCC(NC(=O)C(c4cc5ccccc5s4)N4CCN(c5ccccc5OC)CC4)CC3)c2c1 (some centres undefined) when you can.
a: 21

q: Dear colleague, please send me the reported inhibition for "O=c1c(Br)c(C(F)(F)F)[nH]c2ccc(Oc3ccccc3)cc12" when you can.
a: 6

q: Dear colleague, please send me the reported inhibition for "COc1cc(Cc2cnc(N)nc2N)ccc1OCc1cccc(Oc2ccccc2)c1" when you can.
a: 18

* * *

Recorded inhibition, one value per entry.
experiment: human hepatoma cell viability loss – ATP luminescence, cytotoxicity control for P. falciparum antimalarial project, primary screen (AID 2303); settings: HepG2 viability, 24-48 h, at 10 µM, hits give high values;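 also: 0% = DMSO wells and 100% = digitonin-killed cells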
Activity calls are given as the source filed them.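 Rule for the calls: active = inhibition above 50%; inactive = the rest.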

molecule: CCOc1cc(Cl)c(C(C)NC(=O)c2ccccc2)cc1OCC (stereo unspecified)
readout.type: inhibition
measured.value: -3% (inactive)

q: Dear colleague, please send me the reported inhibition for "CC(C)(C)c1ccc(CN2CCC(NC(=O)c3ccc(-c4cccc(C(F)(F)F)c4)s3)CC2)cc1" when you can.
a: 97% (active)

q: Dear colleague, please send me the reported inhibition for "Cc1cc(NC(=O)Nc2cccc(Cl)c2Cl)c2ccccc2n1" when you can.
a: -5% (inactive)

* * *

assay: inhibition of 3D7 malaria parasite growth – strain 3D7 (AID 2306);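 also: 0% = DMSO wells and 100% = chloroquine plus artemisinin control wells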; conditions: P. falciparum 3D7 erythrocytic growth, LDH absorbance, 72 h; at 2 µM; hits give high values
Recorded growth inhibition, one value per entry.
Number only, in %; omit the unit.

compound: Cc1cc(O)c(CN(C)Cc2ccc3c(c2)OCO3)cc1C(C)C
readout.type: growth inhibition
measured.value: 98

compound: CCn1c(-c2nonc2N)nc2c(-c3cccc(NC(=O)Nc4cccc(OC)c4)c3)ncc(OCCCN)c21
readout.type: growth inhibition
measured.value: 92

compound: Nc1nccc2ccc(-c3ccnc(NCc4cccnc4)n3)cc12
readout.type: growth inhibition
measured.value: 101

compound: CN1CCC(Oc2cc(CN3CC[C@H](NC(=O)c4ccc(Cl)c(Cl)c4)C3)ccc2I)C1 (stereo partly specified)
readout.type: growth inhibition
measured.value: 97

compound: Cc1cc2c(cc1C(F)(F)F)N(C(=O)Nc1ccc(OCCN(C)C)c(C(F)(F)F)c1)CC2
readout.type: growth inhibition
measured.value: 93

q: Dear colleague, please send me the reported growth inhibition for Cc1cc(C(=O)Nc2ccc3c(c2)CCN3C2CCN(Cc3csc4ccccc34)C2)no1 (stereo unspecified) when you can.
a: 96

q: Dear colleague, please send me the reported growth inhibition for "COc1ccc(Cl)cc1N1CCN(CCCNC(=O)c2ccc(-c3nc4cc(Cl)c(F)cc4[nH]3)c(F)c2)CC1" when you can.
a: 101

q: Dear colleague, please send me the reported growth inhibition for COc1ccc2c(c1)CCCC2C(C)NCC(O)c1cccc(C(F)(F)F)c1 (stereo unspecified) when you can.
a: 99

* * *

Recorded growth inhibition, one value per entry.
experiment: antimalarial activity against Dd2 strain (AID 2302);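 also: 0% = DMSO untreated growth and 100% = chloroquine plus artemisinin killed control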; settings: P. falciparum Dd2 in RBCs, LDH growth readout, 72 h; at 2 µM; hits give high values
Number only, in %; omit the unit.

Examples with answers:
molecule: O=C(Nc1ccc(Cl)c(Cl)c1)Nc1ccc2nccc(N3CCNCC3)c2c1
readout.type: growth inhibition
measurement.units: %
measured.value: 62

molecule: CC(C)CNCc1cccc(-c2cccc(CN(CCN(C)C)C(=O)Nc3ccccc3)c2)c1
readout.type: growth inhibition
measurement.units: %
measured.value: 62

molecule: COc1ccc(-c2cc(C(=O)Nc3ccc(CCCN(C)Cc4ccc(OC)c(OC)c4)cc3)c3ccccc3n2)cc1
readout.type: growth inhibition
measurement.units: %
measured.value: 47

molecule: CC(C)NCc1ccc(-c2cccc(-c3nc4ccc(F)cc4[nH]3)c2)cc1
readout.type: growth inhibition
measurement.units: %
measured.value: 96

molecule: CC(=O)Nc1ccc(C(=O)Nc2cccc(-c3ccc(-c4nc5ccc(C(F)(F)F)cc5[nH]4)s3)c2)cn1
readout.type: growth inhibition
measurement.units: %
measured.value: 98

q: Dear colleague, please send me the reported growth inhibition for "COc1cc(C)nc2ccc(NC(=O)c3ccc(C(=O)Nc4ccc5nc(C)cc(OC)c5c4)cc3)cc12" when you can.
a: 72

q: Dear colleague, please send me the reported growth inhibition for "CCc1ccc(N2C(N)=NC(N)=NC2(C)C)cc1" when you can.
a: -1

q: Dear colleague, please send me the reported growth inhibition for "O=C(Cn1c(=O)oc2ccccc21)N1CCC(n2c(=O)n(CCCN3CCOCC3)c3ccccc32)CC1" when you can.
a: 101

q: Dear colleague, please send me the reported growth inhibition for "NC(N)=Nc1nc(-c2ccc(N=C(N)N3CCC[C@H]3CN3CCCC3)cc2)cs1" when you can.
a: 66

q: Dear colleague, please send me the reported growth inhibition for "CCc1c[nH]c2c(N3CCCC3=O)cc(C(=O)N[C@@H](Cc3ccccc3)[C@H](O)CNC(C)(C)CCCC(C)C)cc12" when you can.
a: 97

q: Dear colleague, please send me the reported growth inhibition for "CCn1c(-c2ccccc2)cc2nnc3ccccc3c21" when you can.
a: 87

q: Dear colleague, please send me the reported growth inhibition for "Cc1cc(Nc2ccc(C)c(C)c2)n2nc(C)nc2n1" when you can.
a: 45

q: Dear colleague, please send me the reported growth inhibition for "CN(C(=O)Cc1ccc(Cl)c(Cl)c1)C1CCN(CCCCCNC(=O)/C=C/c2ccc(Cl)c(Cl)c2)CC1" when you can.
a: 13

q: Dear colleague, please send me the reported growth inhibition for "O=C(NC1CCN(CC2(c3ccc(Cl)cc3)CCCCC2)CC1)c1ccn[nH]1" when you can.
a: 96

q: Dear colleague, please send me the reported growth inhibition for "COC(=O)c1ccc(-c2ccc(C(=O)NCC3CCN(c4nc(N)c5cc(OC)c(OC)cc5n4)CC3)cc2)cc1" when you can.
a: 100

q: Dear colleague, please send me the reported growth inhibition for COc1ccc(-n2ccnc2)cc1CNC1CCN(CC2Cn3c(=O)ccc4ccc(F)c2c43)CC1 (stereo unspecified) when you can.
a: 18

* * *

test: human hepatoma cell viability loss – ATP luminescence, cytotoxicity control for P. falciparum antimalarial project, primary screen (AID 2303); conditions: HepG2 viability, 24-48 h, at 10 µM, hits give high values;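 also: 0% = DMSO wells and 100% = digitonin-killed cells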
Recorded inhibition, one value per entry.
Number only, in %; omit the unit.

Examples with answers:
molecule: COc1cc(NCC(O)CNc2cc(Cl)nc3ccccc23)nc2ccccc12 (configuration not stated)
readout.type: inhibition
measured.value: 17

molecule: Cc1cc(CN2CC[C@H](NC(=O)c3ccc(Cl)c(Cl)c3)C2)ccc1OCCCN(C)C
readout.type: inhibition
measured.value: 41

molecule: O=c1cc(NCCCNCc2cc3c(Cl)cccc3s2)[nH]c2ccccc12
readout.type: inhibition
measured.value: 6

q: Dear colleague, please send me the reported inhibition for "Cc1ccc2nc(N(CCCn3ccnc3)C(=O)C=Cc3cccs3)sc2c1" when you can.
a: 22

* * *

biological target: L-lactate dehydrogenase (Plasmodium falciparum (isolate CDC / Honduras)) (UniProt Q27743); assay: PfLDH activity inhibition – cell lysate, 3D7 strain, counter-screen for P. falciparum growth inhibition project (AID 2304);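 also: 0% = vehicle and 100% = reference inhibitor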; conditions: P. falciparum 3D7 crude extract, LDH APAD/NBT absorbance; at 2 µM; hits give high values
Sequence (Q27743 whole entry, looked up): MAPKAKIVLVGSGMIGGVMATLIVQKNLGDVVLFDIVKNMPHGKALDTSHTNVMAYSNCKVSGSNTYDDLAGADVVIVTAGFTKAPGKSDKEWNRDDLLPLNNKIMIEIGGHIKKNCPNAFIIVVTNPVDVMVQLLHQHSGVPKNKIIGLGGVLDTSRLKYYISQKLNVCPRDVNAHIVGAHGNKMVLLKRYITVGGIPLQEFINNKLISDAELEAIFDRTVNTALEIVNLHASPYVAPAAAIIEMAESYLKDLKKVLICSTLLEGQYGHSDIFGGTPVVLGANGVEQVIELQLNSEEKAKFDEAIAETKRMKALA
Recorded inhibition, one value per entry.
Number only, in %; omit the unit.

compound: Clc1ncnc2scc(-c3ccc(Br)cc3)c12
tested.system: L-lactate dehydrogenase (Plasmodium falciparum (isolate CDC / Honduras)) (UniProt Q27743)
measurement.units: %
inhibition: -2

q: Dear colleague, please send me the reported inhibition for "CN1CCC(NCc2ccc(-c3ccc(Cl)cc3)cc2)CC1" when you can.
a: 6

q: Dear colleague, please send me the reported inhibition for "CCN1CCC(N(Cc2ccc(-c3ccc(C(F)(F)F)s3)cc2)C(=O)Cn2c(CCc3cccc(F)c3F)nc(=O)c3ccccc32)CC1" when you can.
a: 7

q: Dear colleague, please send me the reported inhibition for "O=S(=O)(Nc1cccc(CCN2CCC(N3CCCCC3)CC2)c1)c1cccc(C(F)(F)F)c1" when you can.
a: -1

q: Dear colleague, please send me the reported inhibition for "C[C@@H]([C@@H](CCCCc1ccccc1)C(=O)N[C@H](C(=O)Nc1cccnc1)C(C)(C)C)N(O)C=O" when you can.
a: 0

q: Dear colleague, please send me the reported inhibition for Cc1cccc2[nH]c(-c3ccc(-c4cccc(CN5CCCC(N)C5)c4)s3)nc12 (configuration not stated) when you can.
a: 4

q: Dear colleague, please send me the reported inhibition for "N#Cc1cncc(-c2nc3c(N4CCN(c5cnccn5)CC4)cccc3n2CCNCc2ccccc2)c1" when you can.
a: 4
